- SYSTEM_TESTED: human TLR8 (Homo sapiens)
- Construct: host or cells: HEK-Blue cells
- Sequence (Q9NR97 27-1041): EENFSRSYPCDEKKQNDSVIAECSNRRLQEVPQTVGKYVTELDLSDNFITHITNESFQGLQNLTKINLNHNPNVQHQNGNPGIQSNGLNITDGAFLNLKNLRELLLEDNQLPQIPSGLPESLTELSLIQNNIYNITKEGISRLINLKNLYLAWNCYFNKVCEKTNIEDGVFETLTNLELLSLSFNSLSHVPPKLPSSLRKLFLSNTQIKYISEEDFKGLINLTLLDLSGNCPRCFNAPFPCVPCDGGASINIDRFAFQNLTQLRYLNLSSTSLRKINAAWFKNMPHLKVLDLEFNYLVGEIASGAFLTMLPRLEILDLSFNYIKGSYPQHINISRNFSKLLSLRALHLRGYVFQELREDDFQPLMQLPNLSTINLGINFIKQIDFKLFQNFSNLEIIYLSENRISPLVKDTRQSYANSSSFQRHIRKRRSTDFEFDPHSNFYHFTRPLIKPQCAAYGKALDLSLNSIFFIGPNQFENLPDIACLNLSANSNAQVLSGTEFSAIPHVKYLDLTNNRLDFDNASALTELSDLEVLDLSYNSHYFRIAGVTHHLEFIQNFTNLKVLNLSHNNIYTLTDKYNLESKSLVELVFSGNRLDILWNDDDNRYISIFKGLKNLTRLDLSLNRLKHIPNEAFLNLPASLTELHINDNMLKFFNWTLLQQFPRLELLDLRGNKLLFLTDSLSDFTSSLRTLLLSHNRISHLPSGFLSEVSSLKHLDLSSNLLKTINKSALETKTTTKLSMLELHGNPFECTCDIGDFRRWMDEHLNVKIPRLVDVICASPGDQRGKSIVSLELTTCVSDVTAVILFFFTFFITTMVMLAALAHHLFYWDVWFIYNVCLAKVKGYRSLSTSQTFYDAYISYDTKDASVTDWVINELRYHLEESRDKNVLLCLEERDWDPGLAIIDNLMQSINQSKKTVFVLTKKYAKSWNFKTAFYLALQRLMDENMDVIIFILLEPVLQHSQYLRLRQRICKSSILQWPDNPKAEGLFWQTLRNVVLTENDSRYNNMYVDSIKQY
- PROTOCOL: TLR8 inhibition reporter assay (HEK-Blue cells, SEAP reporter, R848 stimulation)
- Format: cell-based
- CONDITION_INFO: HEK-Blue cells overexpressing human TLR8, SEAP reporter, R848 15.9 μM; read-out: TLR8 IC50
MEASURED_PROPERTY: IC50 (nM)
Supply the numeric figure in nM, leaving out any unit text.

Some solved cases for reference:
Request: Value lookup for IC50; key = CCN(C)C1CCC(c2nc3c(C(C)C)c(-c4cn5ncnc5c(C)c4C)[nH]c3s2)CC1 (single isomer, unassigned) [Example 190]
Result: 0.58

Request: Value lookup for IC50; key = Cc1c(-c2[nH]c3sc(C4CCC(N5CC(O)(C(F)(F)F)C5)CC4)nc3c2C(C)C)cn2ncnc2c1C (single isomer, unassigned) [Example 236]
Result: 18.7

***
Request: Value lookup for IC50; key = COc1cc(-c2[nH]c3sc(C4CCC(NC5CCN(C(C)C)CC5)CC4)nc3c2C(C)C)cn2ncnc12 (single isomer, unassigned) [Example 166]
Result: 0.87

###

- SYSTEM_TESTED: human TLR9 (Homo sapiens, UniProt Q9NR96)
- Sequence (Q9NR96 26-1032): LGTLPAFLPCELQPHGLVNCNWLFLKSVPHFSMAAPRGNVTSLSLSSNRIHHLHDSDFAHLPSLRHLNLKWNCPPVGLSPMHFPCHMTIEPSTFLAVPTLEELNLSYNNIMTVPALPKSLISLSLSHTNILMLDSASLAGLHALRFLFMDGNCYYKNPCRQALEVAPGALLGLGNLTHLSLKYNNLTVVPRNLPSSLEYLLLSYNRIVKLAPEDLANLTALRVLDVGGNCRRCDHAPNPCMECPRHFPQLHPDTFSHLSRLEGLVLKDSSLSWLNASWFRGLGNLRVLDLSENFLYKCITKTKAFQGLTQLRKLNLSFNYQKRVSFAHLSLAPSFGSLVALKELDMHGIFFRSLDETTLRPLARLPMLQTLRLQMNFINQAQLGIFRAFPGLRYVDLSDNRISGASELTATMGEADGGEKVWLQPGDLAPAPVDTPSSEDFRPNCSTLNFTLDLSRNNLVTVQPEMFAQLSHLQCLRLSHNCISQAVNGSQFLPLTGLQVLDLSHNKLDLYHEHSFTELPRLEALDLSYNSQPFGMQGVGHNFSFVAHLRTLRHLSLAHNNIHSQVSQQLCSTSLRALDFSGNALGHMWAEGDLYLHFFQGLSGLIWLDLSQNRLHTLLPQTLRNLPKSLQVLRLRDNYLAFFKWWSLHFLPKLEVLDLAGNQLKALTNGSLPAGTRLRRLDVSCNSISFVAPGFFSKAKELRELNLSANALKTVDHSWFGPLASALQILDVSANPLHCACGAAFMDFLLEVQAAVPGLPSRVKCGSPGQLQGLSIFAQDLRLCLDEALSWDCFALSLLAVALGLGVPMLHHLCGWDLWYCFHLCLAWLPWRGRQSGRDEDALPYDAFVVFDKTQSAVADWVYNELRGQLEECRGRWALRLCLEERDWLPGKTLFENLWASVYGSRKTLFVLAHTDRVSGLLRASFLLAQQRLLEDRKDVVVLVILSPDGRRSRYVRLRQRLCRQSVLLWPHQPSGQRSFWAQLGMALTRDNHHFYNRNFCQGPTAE
- PROTOCOL: TLR9 inhibition reporter assay (HEK-Blue cells, SEAP reporter, ODN2006 stimulation)
- CONDITION_INFO: HEK-Blue cells overexpressing human TLR9, SEAP reporter, ODN2006 5 nM
pIC50: −log10 of the molar value.
Cut-off 5 on pIC50, inclusive. At or above means Satisfied; below means Not satisfied.

Use these answered entries as a reference point.
Request: Does pIC50 meet or surpass 5 for Cc1c(-c2[nH]c3sc(N4CCN(C(=O)CN(C)C)C[C@H]4C)nc3c2C(C)C)cn2ncnc2c1C ?
Result: Not satisfied

Request: Does pIC50 meet or surpass 5 for COc1cc(-c2[nH]c3sc(C4CCC(N5CC6(CCOCC6)C5)CC4)nc3c2C(C)C)cn2ncnc12 (single isomer, unassigned) [Example 111] ?
Result: Satisfied

Request: Does pIC50 meet or surpass 5 for Cc1cc(-c2[nH]c3sc(C4CCC(N5CC6(COC6)C5)CC4)nc3c2C(C)C)cn2ncnc12 (single isomer, unassigned) [Example 137] ?
Result: Satisfied

Request: Does pIC50 meet or surpass 5 for Cc1cc(-c2[nH]c3sc(C4CCN(CC5(C)COC5)CC4)nc3c2C(C)C)cn2ncnc12 ?
Result: Satisfied

Consider the record given below.
Request: Does pIC50 meet or surpass 5 for COc1cc(-c2[nH]c3sc(C4CCC(NC5(C)COC5)CC4)nc3c2C(C)C)cn2ncnc12 (single isomer, unassigned) [Example 70] ?
Result: Satisfied

###

The reader will find reported pIC50 values listed item by item below.
- SYSTEM_TESTED: human TLR7 (Homo sapiens)
- Construct: host or cells: HEK-Blue cells
- Sequence (Q9NYK1 27-1049): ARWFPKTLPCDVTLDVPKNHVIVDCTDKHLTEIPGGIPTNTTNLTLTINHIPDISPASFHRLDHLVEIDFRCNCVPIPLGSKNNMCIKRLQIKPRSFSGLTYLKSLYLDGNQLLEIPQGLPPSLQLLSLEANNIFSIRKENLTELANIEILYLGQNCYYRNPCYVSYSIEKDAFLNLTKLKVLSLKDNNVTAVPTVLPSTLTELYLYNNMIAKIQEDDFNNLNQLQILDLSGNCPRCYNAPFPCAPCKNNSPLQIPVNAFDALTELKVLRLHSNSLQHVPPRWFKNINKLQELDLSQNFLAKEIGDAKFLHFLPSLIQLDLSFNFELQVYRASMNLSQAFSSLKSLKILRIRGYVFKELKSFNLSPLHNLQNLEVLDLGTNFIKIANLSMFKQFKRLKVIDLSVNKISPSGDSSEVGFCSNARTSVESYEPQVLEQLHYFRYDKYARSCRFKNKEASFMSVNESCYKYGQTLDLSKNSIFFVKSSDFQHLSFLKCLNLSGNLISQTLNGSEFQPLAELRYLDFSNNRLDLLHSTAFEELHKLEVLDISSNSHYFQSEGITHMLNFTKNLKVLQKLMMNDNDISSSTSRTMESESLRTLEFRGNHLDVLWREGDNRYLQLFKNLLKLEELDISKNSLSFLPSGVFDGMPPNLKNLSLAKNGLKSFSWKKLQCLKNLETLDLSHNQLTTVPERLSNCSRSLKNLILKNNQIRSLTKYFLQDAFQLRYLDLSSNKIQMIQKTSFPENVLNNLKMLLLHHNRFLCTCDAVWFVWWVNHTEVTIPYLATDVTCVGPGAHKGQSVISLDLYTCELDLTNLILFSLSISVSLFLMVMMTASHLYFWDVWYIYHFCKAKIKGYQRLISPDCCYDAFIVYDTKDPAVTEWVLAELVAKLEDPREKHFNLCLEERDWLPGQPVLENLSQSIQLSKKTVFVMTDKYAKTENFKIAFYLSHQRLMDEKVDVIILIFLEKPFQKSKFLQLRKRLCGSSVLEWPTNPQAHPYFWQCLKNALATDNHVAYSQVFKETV
- PROTOCOL: TLR7 inhibition reporter assay (HEK-Blue cells, SEAP reporter, gardiquimod stimulation)
- Type: cell-based
- CONDITION_INFO: HEK-Blue cells overexpressing human TLR7, SEAP reporter, gardiquimod 7.5 μM; read-out: TLR7 IC50
Would you please state pIC50, meaning minus log10 of the concentration in mol/L, as a bare number?

Request: Value lookup for pIC50; key = COc1cc(-c2[nH]c3sc(C(=O)NCC(F)F)nc3c2C(C)C)cn2ncnc12
Result: 7.30

Request: Value lookup for pIC50; key = Cc1cc(-c2[nH]c3sc(C4CCC(NC5COC5)CC4)nc3c2C(C)C)cn2ncnc12 (single isomer, unassigned) [Example 131]
Result: 8.13

Request: Value lookup for pIC50; key = Cc1c(-c2[nH]c3sc(C4CCN(C)CC4)nc3c2C(C)C)cn2ncnc2c1C
Result: 9.01

Request: Value lookup for pIC50; key = COc1cc(-c2[nH]c3sc(C4CCC(NC56CC(C5)C6)CC4)nc3c2C(C)C)cn2ncnc12 (single isomer, unassigned) [Example 168]
Result: 8.18

These measurements were taken from patent US20230139171A1.
